Listing of entries alongside the reported melting point.

compound=O=S1(=O)NCN(C2CC2)c2cc(Br)cc(Br)c21 measurementkind="melting point" result="203 to 205 °C"
compound=CCc1c(C(=O)C(N)=O)c2c(OCC(=O)O)cccc2n1Cc1ccccc1 measurementkind="melting point" result="230 to 234 °C"
compound=CNC(=O)n1nc(Oc2ccc([N+](=O)[O-])c(C(F)(F)F)c2)cc1C measurementkind="melting point" result="139 to 141 °C"
compound=O=C(Oc1ccc2c(OC(=O)c3ccc(O)c(O)c3)c3cc(OC(=O)c4ccc(O)c(O)c4)ccc3cc2c1)c1ccc(O)c(O)c1 measurementkind="melting point" result="233 °C"
compound=O=C(O)CC(=O)Nc1ccccc1C(=O)O measurementkind="melting point" result="171 to 173 °C"
compound=CS(=O)(=O)Nc1cc2occ(NC=O)c(=O)c2cc1Oc1ccccc1 measurementkind="melting point" result="236 to 238 °C"
compound="c1ccc(CN2c3ccccc3-c3noc4c3C2CCC4)cc1 (stereo not given)" measurementkind="melting point" result="162 to 164 °C"
compound=CCCCc1nn2c(c1Cc1ccc(C(=O)O)cc1)CCCC2 measurementkind="melting point" result="148 to 150 °C"
compound="O[C@H]1COC(c2ccc(Cl)cc2)=N[C@@H]1c1ccccc1 (racemic)" measurementkind="melting point" result="142 °C"
compound=CCOC(=O)Cc1cc(C(=O)OC)ccc1NC(C)=O measurementkind="melting point" result="119 °C"

# melting point (compound: CCCCOCCOc1ccc(-c2ccc3c(c2)C=C(C(=O)Nc2ccc([C@H](O)c4ccccn4)cc2)CCN3C(=O)C(F)(F)F)cc1 ) is 100 to 102 °C

# melting point (compound: CC(C)(C)c1cc(-n2nc3ccc(C(F)(F)F)cc3n2)c(O)c(C(C)(C)C)c1 ) is 131 to 133 °C

# melting point (compound: CCn1cnc(C(N)=O)c1NC(=S)NC(=O)c1ccccc1 ) is 178 to 180 °C

# melting point (compound: CC1(C)C(C(=O)O)N2C(=O)C(NC(=O)Cc3ccccc3)C2S1=O (stereo not given) ) is 143 to 145 °C

# melting point (compound: O=C(O)Cc1coc2cc(OCc3ccc(OCc4ccc(C(F)(F)F)cc4)cc3)ccc12 ) is 161 to 163 °C

# melting point (compound: Cc1c(N)cccc1OC[C@@H]1CCCN1C(=O)OC(C)(C)C ) is 110 °C
